Target: ER (Homo sapiens (Human), UniProt P03372)
Sequence (P03372 whole entry): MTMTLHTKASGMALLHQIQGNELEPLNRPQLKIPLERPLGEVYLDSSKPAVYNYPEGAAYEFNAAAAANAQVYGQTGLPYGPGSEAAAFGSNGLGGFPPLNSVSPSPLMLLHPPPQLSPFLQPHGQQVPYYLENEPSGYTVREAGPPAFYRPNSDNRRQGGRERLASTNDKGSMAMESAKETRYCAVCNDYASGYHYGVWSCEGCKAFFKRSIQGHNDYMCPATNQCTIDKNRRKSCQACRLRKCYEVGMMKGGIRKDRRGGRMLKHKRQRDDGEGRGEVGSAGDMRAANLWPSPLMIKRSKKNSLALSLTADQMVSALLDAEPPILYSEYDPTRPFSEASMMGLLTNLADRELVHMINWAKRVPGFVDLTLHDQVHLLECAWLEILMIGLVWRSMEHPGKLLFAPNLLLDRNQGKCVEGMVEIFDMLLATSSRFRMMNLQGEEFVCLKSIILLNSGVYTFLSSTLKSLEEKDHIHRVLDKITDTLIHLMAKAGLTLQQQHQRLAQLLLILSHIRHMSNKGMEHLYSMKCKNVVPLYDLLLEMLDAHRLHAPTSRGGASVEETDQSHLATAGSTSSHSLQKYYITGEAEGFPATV
Assay: In-cell western (ICW) ER degradation assay in MCF-7 cells
Format: cell-based
Conditions: MCF7, maximal ER degradation, MCF7, 16 hrs
Let's look at some compounds and their measured Dmax.

Solved entries (count: 2):
COc1cc(C(=O)NC2CCC(=O)NC2=O)ncc1N1CCN(CC2CCC3(CC2)CN(c2ccc([C@H]4c5ccc(O)cc5OC[C@H]4c4ccccc4)cc2)C3)CC1 (mixture of isomers); ≥ 75%
COC[C@H](C(=O)N1Cc2cc3c(cc2C1)C(=O)N(C1CCC(=O)NC1=O)C3)N1CCC2(CCN(c3ccc([C@@H]4c5ccc(O)cc5OC[C@@H]4c4ccccc4)cc3)CC2)CC1 (single isomer, unassigned); 25 to 50%

Now take the following compound into account.
(Q) Lab note: ER (Homo sapiens (Human), UniProt P03372) assay, enter Dmax for O=C1CC[C@H](NC(=O)c2ccc3c(n2)OC[C@H]2CN(CC4CCC5(CC4)CN(c4ccc([C@@H]6c7ccc(O)cc7OC[C@@H]6c6ccccc6)cc4)C5)CCN32)C(=O)N1 here
(A) 50 to 75%

// provenance: patent US20260000676A1
